B1: RHOBTB2 (parent)
chain: LYTGELDENERDLMHIAHIAELLE

Variants of: B1
Test: protein stability index of a GFP-peptide fusion (GPS, HEK-293T) (PSI 1-6); higher = more stable;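 further: lentivirally expressed fusions sorted by FACS into six bins by GFP to DsRed ratio, PSI derived from sequencing read proportions per bin multiplied by bin number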
Conditions: c terminus: a fixed tail appended

{"variant spec": "I16C", "protein stability index": 3.77}
{"variant spec": "M14V", "protein stability index": 2.16}
{"variant spec": "E10G", "protein stability index": 2.02}
{"variant spec": "E8I", "protein stability index": 1.62}
{"variant spec": "R11L", "protein stability index": 1.77}
{"variant spec": "I19P", "protein stability index": 4.81}
{"variant spec": "A20P", "protein stability index": 3.79}
{"variant spec": "N9C", "protein stability index": 1.85}
{"variant spec": "L13S", "protein stability index": 3.12}
{"variant spec": "I19L", "protein stability index": 2.31}
{"variant spec": "E5R", "protein stability index": 3.45}
{"variant spec": "E10T", "protein stability index": 2.66}
{"variant spec": "E5Y", "protein stability index": 1.9}
{"variant spec": "L13H", "protein stability index": 3.58}
{"variant spec": "L23H", "protein stability index": 3.97}
{"variant spec": "D7C", "protein stability index": 1.88}
{"variant spec": "E5D", "protein stability index": 2.63}
{"variant spec": "Y2I", "protein stability index": 2.54}
{"variant spec": "M14I", "protein stability index": 2.84}
{"variant spec": "M14S", "protein stability index": 3.8}
{"variant spec": "Y2H", "protein stability index": 3.8}
{"variant spec": "I16T", "protein stability index": 3.62}
{"variant spec": "E8C", "protein stability index": 2.05}
{"variant spec": "L23G", "protein stability index": 4.05}
{"variant spec": "I16E", "protein stability index": 4.85}
{"variant spec": "G4Y", "protein stability index": 2.2}
{"variant spec": "I16N", "protein stability index": 3.54}
{"variant spec": "L6F", "protein stability index": 2.46}
{"variant spec": "T3L", "protein stability index": 1.94}
{"variant spec": "H18Y", "protein stability index": 1.59}
{"variant spec": "A17Q", "protein stability index": 2.95}
{"variant spec": "E24P", "protein stability index": 3.33}
{"variant spec": "H15P", "protein stability index": 3.23}
{"variant spec": "L6K", "protein stability index": 3.31}
{"variant spec": "E10D", "protein stability index": 2.87}
{"variant spec": "Y2F", "protein stability index": 2.78}
{"variant spec": "L6Q", "protein stability index": 3.86}
{"variant spec": "E21N", "protein stability index": 2.48}
{"variant spec": "G4P", "protein stability index": 2.46}
{"variant spec": "H15V", "protein stability index": 1.62}
{"variant spec": "M14D", "protein stability index": 3.41}
{"variant spec": "A20T", "protein stability index": 2.76}
{"variant spec": "E10F", "protein stability index": 2.53}
{"variant spec": "E8W", "protein stability index": 2.88}
{"variant spec": "G4V", "protein stability index": 1.44}
{"variant spec": "M14F", "protein stability index": 2.54}
{"variant spec": "H15E", "protein stability index": 2.76}
{"variant spec": "D7Q", "protein stability index": 1.94}
{"variant spec": "Y2W", "protein stability index": 1.69}
{"variant spec": "N9K", "protein stability index": 2.68}
{"variant spec": "E5F", "protein stability index": 2.71}
{"variant spec": "Y2E", "protein stability index": 3.49}
{"variant spec": "L23M", "protein stability index": 3.3}
{"variant spec": "L23C", "protein stability index": 3.58}
{"variant spec": "L6W", "protein stability index": 2.44}
{"variant spec": "N9D", "protein stability index": 2.59}
{"variant spec": "L22A", "protein stability index": 2.96}
{"variant spec": "E8Q", "protein stability index": 2.85}
{"variant spec": "L6T", "protein stability index": 3.57}
{"variant spec": "E21V", "protein stability index": 1.04}
{"variant spec": "T3F", "protein stability index": 3.07}
{"variant spec": "A17E", "protein stability index": 2.17}
{"variant spec": "G4M", "protein stability index": 1.77}
{"variant spec": "I19Y", "protein stability index": 3.56}
{"variant spec": "N9S", "protein stability index": 2.19}
{"variant spec": "M14T", "protein stability index": 3.04}
{"variant spec": "L6G", "protein stability index": 3.11}
{"variant spec": "T3G", "protein stability index": 1.91}
{"variant spec": "H15N", "protein stability index": 2.63}
{"variant spec": "L6H", "protein stability index": 2.96}
{"variant spec": "L22D", "protein stability index": 4.26}
{"variant spec": "N9F", "protein stability index": 1.34}
{"variant spec": "Y2T", "protein stability index": 3.44}
{"variant spec": "E21T", "protein stability index": 1.75}
{"variant spec": "A17C", "protein stability index": 1.77}
{"variant spec": "E5K", "protein stability index": 2.75}
{"variant spec": "H18F", "protein stability index": 1.72}
{"variant spec": "L23K", "protein stability index": 3.93}
{"variant spec": "M14P", "protein stability index": 3.48}
{"variant spec": "M14R", "protein stability index": 2.36}
{"variant spec": "E5C", "protein stability index": 1.67}
{"variant spec": "H15C", "protein stability index": 2.13}
{"variant spec": "D12I", "protein stability index": 3.03}
{"variant spec": "T3K", "protein stability index": 2.16}
{"variant spec": "H15Y", "protein stability index": 1.67}
{"variant spec": "M14C", "protein stability index": 2.45}
{"variant spec": "A20E", "protein stability index": 3.85}
{"variant spec": "L1T", "protein stability index": 2.1}
{"variant spec": "L1A", "protein stability index": 2.62}
{"variant spec": "L23P", "protein stability index": 4.28}
{"variant spec": "H15W", "protein stability index": 2.47}
